# Test system: Staphylococcus sp.
# Assay overview: in vitro antibacterial evaluation, MIC by broth dilution
# Type: cell-based
# Experimental setup: broth dilution, 18 hours at 35° C.; strain ATCC 29213
Experimental endpoint: MIC Staphylococcus aureus (ATCC 29213) (µg/mL)
# number only, unit µg/mL dropped from output

Worked examples follow.
compound="CCCCCC1OCC2OC(OC3C(CO)OC(Oc4ccc(CC5NC(=O)C(C(C)c6ccccc6)NC(=O)CNC(=O)C(CO)NC(=O)C(C(O)C6CNC(=N)N6C6OC(CO)C(O)C(O)C6O)NC(=O)C(C(O)C6CNC(=N)N6)NC5=O)cc4)C(O)C3O)C(O)C(O)C2O1 (stereo not shown) [Example 108]" observed_measurement=1
compound="CC(c1ccccc1)C1NC(=O)CNC(=O)C(CO)NC(=O)C(C(O)C2CNC(=N)N2C2OC(CO)C(O)C(O)C2O)NC(=O)C(C(O)C2CNC(=N)N2)NC(=O)C(Cc2ccc(OC3OC(CO)C(OC4OC5COC(c6ccsc6)OC5C(O)C4O)C(O)C3O)cc2)NC1=O (stereo not shown) [Example 133]" observed_measurement=1
compound="CC(c1ccccc1)[C@@H]1NC(=O)CNC(=O)[C@H](CO)NC(=O)[C@H](C(O)C2CNC(=N)N2)NC(=O)[C@H](C(O)C2CNC(=N)N2)NC(=O)[C@H](Cc2ccc(O)cc2)NC1=O (stereo partly shown) [Example 280b]" observed_measurement=128

// below: MIC Staphylococcus aureus (ATCC 29213) requested for another compound
Data request: # query: MIC Staphylococcus aureus (ATCC 29213) of entry CC(c1ccccc1)C1NC(=O)CNC(=O)C(CO[Si](C)(C)C(C)(C)C)NC(=O)C(C(O)C2CNC(=N)N2C2OC3COC(C)(C)OC3C3OC(C)(C)OC32)NC(=O)C(C(O)C2CNC(=N)N2)NC(=O)C(Cc2ccc(O)cc2)NC1=O (stereo not shown) [Example 248]
Data returned: 32

---

# Test system: Streptococcus sp.
# Assay overview: in vitro antibacterial evaluation, MIC by broth dilution
# Format: cell-based
# Experimental setup: strain GC 4563; broth dilution, 18 hours at 35° C.
Experimental endpoint: MIC Streptococcus pyogenes (GC 4563) (µg/mL)
# number only, unit µg/mL dropped from output

compound="Cc1cc(C2OCC3OC(OC4C(CO)OC(Oc5ccc(CC6NC(=O)C(C(C)c7ccccc7)NC(=O)CNC(=O)C(CO)NC(=O)C(C(O)C7CNC(=N)N7C7OC(CO)C(O)C(O)C7O)NC(=O)C(C(O)C7CNC(=N)N7)NC6=O)cc5)C(O)C4O)C(O)C(O)C3O2)ccc1[N+](=O)[O-] (centres unmarked)" observed_measurement=2

// below: MIC Streptococcus pyogenes (GC 4563) requested for another compound
Data request: # query: MIC Streptococcus pyogenes (GC 4563) of entry CC(c1ccccc1)C1NC(=O)CNC(=O)C(CO)NC(=O)C(C(O)C2CNC(=N)N2C2OC(CO)C(O)C(O)C2O)NC(=O)C(C(O)C2CNC(=N)N2)NC(=O)C(Cc2ccc3oc(SCC(=O)c4ccccc4)nc3c2)NC1=O (centres unmarked)
Data returned: 8

---

# Test system: Staphylococcus sp.
# Assay overview: in vitro antibacterial evaluation, MIC by broth dilution
# Assay type: cell-based
# Experimental setup: broth dilution, 18 hours at 35° C.; strain GC 3053
Simple rule here: MIC Staphylococcus aureus (GC 3053) less than 2 µg/mL is label 1, otherwise label 0.

compound="Cc1cc(C2OCC3OC(OC4C(CO)OC(Oc5ccc(CC6NC(=O)C(C(C)c7ccccc7)NC(=O)CNC(=O)C(CO)NC(=O)C(C(O)C7CNC(=N)N7C7OC(CO)C(O)C(O)C7O)NC(=O)C(C(O)C7CNC(=N)N7)NC6=O)cc5)C(O)C4O)C(O)C(O)C3O2)ccc1[N+](=O)[O-] (centres unmarked) [Example 151]" answer_label="label 0"

Data request: Hi there! Is MIC Staphylococcus aureus (GC 3053) for CC(c1ccccc1)C1NC(=O)CNC(=O)C(CO)NC(=O)C(C(O)C2CNC(=N)N2C2OC(CO)C(O)C(O)C2O)NC(=O)C(C(O)C2CNC(=N)N2)NC(=O)C(Cc2ccc(OC3OC(CO)C(OC4OC5COC(Cc6ccc(Cl)cc6)OC5C(O)C4O)C(O)C3O)cc2)NC1=O (centres unmarked) [Example 120] below 2 µg/mL, do you know?
Data returned: label 1

Data request: Hi there! Is MIC Staphylococcus aureus (GC 3053) for COc1cc(OC)cc(C2OCC3OC(OC4C(CO)OC(Oc5ccc(CC6NC(=O)C(C(C)c7ccccc7)NC(=O)CNC(=O)C(CO)NC(=O)C(C(O)C7CNC(=N)N7C7OC(CO)C(O)C(O)C7O)NC(=O)C(C(O)C7CNC(=N)N7)NC6=O)cc5)C(O)C4O)C(O)C(O)C3O2)c1 (centres unmarked) [Example 150] below 2 µg/mL, do you know?
Data returned: label 0

Data request: Hi there! Is MIC Staphylococcus aureus (GC 3053) for CC(C)=CCOc1cccc(C2OCC3OC(OC4C(CO)OC(Oc5ccc(CC6NC(=O)C(C(C)c7ccccc7)NC(=O)CNC(=O)C(CO)NC(=O)C(C(O)C7CNC(=N)N7C7OC(CO)C(O)C(O)C7O)NC(=O)C(C(O)C7CNC(=N)N7)NC6=O)cc5)C(O)C4O)C(O)C(O)C3O2)c1 (centres unmarked) [Example 165] below 2 µg/mL, do you know?
Data returned: label 0

Data request: Hi there! Is MIC Staphylococcus aureus (GC 3053) for CC(C)CC(=O)OCC1OC(OC2C(CO)OC(Oc3ccc(CC4NC(=O)C(Cc5ccccc5)NC(=O)CNC(=O)C(CO)NC(=O)C(C(O)C5CNC(=N)N5C5OC(CO)C(O)C(O)C5O)NC(=O)C(C(O)C5CNC(=N)N5)NC4=O)cc3)C(O)C2O)C(O)C(O)C1O (centres unmarked) [Example 283c] below 2 µg/mL, do you know?
Data returned: label 0

Data request: Hi there! Is MIC Staphylococcus aureus (GC 3053) for N=C1NCC(C(O)C2NC(=O)[C@H](C(O)C3CNC(=N)N3)NC(=O)C(Cc3ccc(O)cc3)NC(=O)[C@H](Cc3ccccc3)NC(=O)CNC(=O)[C@H](CO)NC2=O)N1 (stereo in doubt) [Example 280a] below 2 µg/mL, do you know?
Data returned: label 0

---

# Test system: Enterococcus sp.
# Assay overview: in vitro antibacterial evaluation, MIC by broth dilution
# Type: cell-based
# Experimental setup: strain GC 4554; broth dilution, 18 hours at 35° C.
Parameter MIC Enterococcus faecalis (GC 4554): see the listing below.
# number only, unit µg/mL dropped from output

compound="CC(c1ccccc1)C1NC(=O)CNC(=O)C(CO)NC(=O)C(C(O)C2CNC(=N)N2C2OC(CO)C(O)C(O)C2O)NC(=O)C(C(O)C2CNC(=N)N2)NC(=O)C(Cc2ccc3oc(SCc4ccc(-c5ccccc5)cc4)nc3c2)NC1=O (stereo not shown)" experimental_system="Enterococcus sp." unit_tag=µg/mL observed_measurement=64

Data request: # query: MIC Enterococcus faecalis (GC 4554) of entry CC(c1ccccc1)C1NC(=O)CNC(=O)C(CO)NC(=O)C(C(O)C2CNC(=N)N2C2OC(CO)C(O)C(O)C2O)NC(=O)C(C(O)C2CNC(=N)N2)NC(=O)C(Cc2ccc3oc(SCc4ccccc4)nc3c2)NC1=O (stereo not shown)
Data returned: 16

---

# Test system: Enterococcus sp.
# Assay overview: in vitro antibacterial evaluation, MIC by broth dilution
# Format: cell-based
# Experimental setup: strain GC 4552; broth dilution, 18 hours at 35° C.
Parameter MIC Enterococcus faecalis (GC 4552): see the listing below.
# number only, unit µg/mL dropped from output

compound="CC(C)=CCOc1cccc(C2OCC3OC(OC4C(CO)OC(Oc5ccc(CC6NC(=O)C(C(C)c7ccccc7)NC(=O)CNC(=O)C(CO)NC(=O)C(C(O)C7CNC(=N)N7C7OC(CO)C(O)C(O)C7O)NC(=O)C(C(O)C7CNC(=N)N7)NC6=O)cc5)C(O)C4O)C(O)C(O)C3O2)c1 (stereo not shown) [Example 165]" unit_tag=µg/mL observed_measurement=16

Data request: # query: MIC Enterococcus faecalis (GC 4552) of entry CC(c1ccccc1)C1NC(=O)CNC(=O)C(CO)NC(=O)C(C(O)C2CNC(=N)N2C2OC(CO)C(O)C(O)C2O)NC(=O)C(C(O)C2CNC(=N)N2)NC(=O)C(Cc2ccc3oc(-c4ccc(OCc5ccccc5)cc4)nc3c2)NC1=O (stereo not shown) [Example 31]
Data returned: 128

Data request: # query: MIC Enterococcus faecalis (GC 4552) of entry CC(c1ccccc1)C1NC(=O)CNC(=O)C(CO)NC(=O)C(C(O)C2CNC(=N)N2C2OC(CO)C(O)C(O)C2O)NC(=O)C(C(O)C2CNC(=N)N2)NC(=O)C(Cc2ccc(OC3OC(CO)C(OC4OC5COC(c6ccc7c(c6)OCCO7)OC5C(O)C4O)C(O)C3O)cc2)NC1=O (stereo not shown) [Example 149]
Data returned: 8
